Origin of the recorded values: paper PMC3517355

subject-of-test: CCHF 11E7a peptide (Crimean-Congo hemorrhagic fever virus, UniProt Q8JSZ3)
protocol-text: ELASA; […] (0.5 M NaCl, 10 mM Tris-HCl, 1 mM MgCl2, pH 7.5-7.6), 1 h, RT (~25 C); […]
test-settings: label: 5'-biotin
Known binding signal of a selection of binders
assay-readout: binding signal (A405)

[[record]]
binder = "E7a-5R (ssDNA) DNA: ATCCGTCACACCTGCTCTTGACACGCGTACGGGGTCCGGACATGTCATAACGGACTGGTGTTGGCTCCCGTAT"
value_reported = 2.08

[[record]]
binder = "E7a-20F (ssDNA) DNA: ATACGGGAGCCAACACCACGCAGTTATAACGGCAGGCCCCATATCGTTTAACCAGAGCAGGTGTGACGGAT"
value_reported = 2.02

[[record]]
binder = "E7a-11R (ssDNA) DNA: ATCCGTCACACCTGCTCTCGTGTGATATATATGGTAAGGGGGGTTAGTACTGCTGGTGTTGGCTCCCGTAT"
value_reported = 2.07

[[record]]
binder = "E7a-29F (ssDNA) DNA: ATACGGCAGCCAACACCACACACATAGCGCTTTGTATTCAGCCGGATGTGATGTAGAGCAGGTGTGACGGAT"
value_reported = 2.06

[[record]]
binder = "E7a-8R (ssDNA) DNA: ATCCGTCACACCTGCTCTCGCTGAAGCAAGACATTATCGGGACATTGCCGTGATGGTGTTGGCTCCCGTAT"
value_reported = 2.04

[[record]]
binder = "E7a-18F (ssDNA) DNA: ATACGGGAGCCAACACCAACAGATGGATAAGGGGGAAACTGCCCATTCGGTTAGTAGAGCAGGTGTGACGGAT"
value_reported = 2.08

[[record]]
binder = "E7a-23F (ssDNA) DNA: ATACGGGAGCCAACACCATGTCAGGACCTCCATCGCCCGGGCCCGCCGCCGCTGAGAGCAGGTGTGAC"
value_reported = 2.23

[[record]]
binder = "E7a-20R (ssDNA) DNA: ATCCGTCACACCTGCTCTGGTTAAACGATATGGGGCCTGCCGTTATAACTGCGTGGTGTTGGCTCCCGTAT"
value_reported = 2.04

[[record]]
binder = "E7a-33F (ssDNA) DNA: ATACGGGAGCCAACACCACACACAGAGCGCCATGGACTCAGTCAGATGTGATGTAGAGCAGGTGTGACGGAT"
value_reported = 2.07

[[record]]
binder = "E7a-33R (ssDNA) DNA: ATCCGTCACACCTGCTCTACATCACATCTGACTGAGTCCATGGCGCTCTGTGTGTGGTGTTGGCTCCCGTAT"
value_reported = 2.12

